details: fish
MEASURED_PROPERTY: log10 BCF
Note: the reply should be a number with no unit written.

Ask: Tell me the measured log10 BCF of Oc1ccccc1 , please.
Result: 1.24

Ask: Tell me the measured log10 BCF of CC(C)(OOC(C)(C)c1ccccc1)c1ccccc1 , please.
Result: 2.62

Ask: Tell me the measured log10 BCF of Clc1ccccc1NNc1ccccc1Cl , please.
Result: 3.66

Ask: Tell me the measured log10 BCF of Oc1nc(O)nc(O)n1 , please.
Result: -0.3

Ask: Tell me the measured log10 BCF of CCOCC , please.
Result: 0.73

Ask: Tell me the measured log10 BCF of CCNc1ccc(C)cc1 , please.
Result: 0.61

Ask: Tell me the measured log10 BCF of C=Cc1ccc(C)cc1 , please.
Result: 1.5

Ask: Tell me the measured log10 BCF of C1=CCCC=CCCC=CCC1 , please.
Result: 3.92

Ask: Tell me the measured log10 BCF of CCCN(CCC)c1c([N+](=O)[O-])cc(C(F)(F)F)cc1[N+](=O)[O-] , please.
Result: 3.36

Ask: Tell me the measured log10 BCF of Nc1cc(Cl)c(Cl)cc1Cl , please.
Result: 2.33

Ask: Tell me the measured log10 BCF of COP(=S)(OC)Oc1cc(Cl)c(Br)cc1Cl , please.
Result: 3.59

Ask: Tell me the measured log10 BCF of CCOC(=O)C(O)(c1ccc(Cl)cc1)c1ccc(Cl)cc1 , please.
Result: 2.68

Ask: Tell me the measured log10 BCF of Nc1ccccc1Cl , please.
Result: 0.95

Ask: Tell me the measured log10 BCF of Oc1c(Cl)cc(Cl)c(Cl)c1Cc1c(O)c(Cl)cc(Cl)c1Cl , please.
Result: 2.07

Ask: Tell me the measured log10 BCF of Cc1ccc(C)c(N)c1 , please.
Result: 0.58

Ask: Tell me the measured log10 BCF of Clc1cc2c(cc1Cl)Oc1cc(Cl)c(Cl)cc1O2 , please.
Result: 4.99

Ask: Tell me the measured log10 BCF of Oc1c(Cl)c(Cl)c(Cl)c(Cl)c1Cl , please.
Result: 2.66

Ask: Tell me the measured log10 BCF of Brc1cc(Br)c(Oc2c(Br)c(Br)c(Br)c(Br)c2Br)c(Br)c1 , please.
Result: 5.75

Ask: Tell me the measured log10 BCF of Cc1ccc([N+](=O)[O-])cc1O , please.
Result: 0.85

Ask: Tell me the measured log10 BCF of Clc1ccccc1 , please.
Result: 1.25

Ask: Tell me the measured log10 BCF of CN(C)C=O , please.
Result: -0.1

Ask: Tell me the measured log10 BCF of Clc1cc2c(c(Cl)c1Cl)Oc1c(Cl)c(Cl)c(Cl)c(Cl)c1O2 , please.
Result: 3.67

Ask: Tell me the measured log10 BCF of CNC(=O)Oc1cc(C)c(N(C)C)c(C)c1 , please.
Result: 1.42

Ask: Tell me the measured log10 BCF of Clc1ccc(Oc2ccc(Cl)c(Cl)c2)cc1Cl , please.
Result: 4.51

Ask: Tell me the measured log10 BCF of N#Cc1c(Cl)c(Cl)c(Cl)c(C#N)c1Cl , please.
Result: 1.8

Ask: Tell me the measured log10 BCF of CN1CCCCC1 , please.
Result: 0.65

Ask: Tell me the measured log10 BCF of Brc1ccc(Oc2ccc(Br)cc2Br)cc1 , please.
Result: 5.83

Ask: Tell me the measured log10 BCF of c1ccsc1 , please.
Result: 0.95

Ask: Tell me the measured log10 BCF of CCCCCC[Si](O)(CCCCCC)CCCCCC , please.
Result: 2.7

Ask: Tell me the measured log10 BCF of c1ccc2c(c1)-c1cccc3cccc-2c13 , please.
Result: 3.56

Ask: Tell me the measured log10 BCF of N=C(Nc1ccccc1)Nc1ccccc1 , please.
Result: 1.3

Ask: Tell me the measured log10 BCF of c1ccc(Cc2ccccc2)cc1 , please.
Result: 2.94

Ask: Tell me the measured log10 BCF of Brc1ccc(Oc2c(Br)cccc2Br)c(Br)c1 , please.
Result: 5.88

Ask: Tell me the measured log10 BCF of Sc1nc2ccccc2s1 , please.
Result: 0.9

Ask: Tell me the measured log10 BCF of C=CC1CC=CCC1 (stereo not given) , please.
Result: 2.22

Ask: Tell me the measured log10 BCF of CC(C)=CC=C(C)C , please.
Result: 2.32

Ask: Tell me the measured log10 BCF of N#Cc1ccccc1C#N , please.
Result: 0.7

Ask: Tell me the measured log10 BCF of BrCCBr , please.
Result: 1.18

Ask: Tell me the measured log10 BCF of O=C1c2ccccc2-c2cccc3cccc1c23 , please.
Result: 2.09

Ask: Tell me the measured log10 BCF of CCOP(=S)(OCC)Oc1ccc(=O)n(-c2ccccc2)n1 , please.
Result: 0.67

Ask: Tell me the measured log10 BCF of O=[N+]([O-])c1ccc(Cl)cc1C(F)(F)F , please.
Result: 1.87

Ask: Tell me the measured log10 BCF of CC(C)C1=CC2=CC[C@@H]3[C@](C)(CCC[C@@]3(C)C(=O)O)[C@H]2CC1 , please.
Result: 1.97

Ask: Tell me the measured log10 BCF of CCCCC(CC)COC(=O)c1ccccc1C(=O)OCC(CC)CCCC (stereo not given) , please.
Result: 2.77

Ask: Tell me the measured log10 BCF of ClCC(Cl)Cl , please.
Result: 0.7

Ask: Tell me the measured log10 BCF of Clc1cc2oc3cc(Cl)c(Cl)c(Cl)c3c2cc1Cl , please.
Result: 3.58

Ask: Tell me the measured log10 BCF of Clc1cc2oc3c(Cl)c(Cl)c(Cl)c(Cl)c3c2cc1Cl , please.
Result: 3.9

Ask: Tell me the measured log10 BCF of C1CCC2CCCCC2C1 (stereo not given) , please.
Result: 3.25

Ask: Tell me the measured log10 BCF of CCOP(=S)(OCC)Oc1ccc([N+](=O)[O-])cc1 , please.
Result: 1.99

Ask: Tell me the measured log10 BCF of COP(=S)(OC)Oc1ccc(S(C)=O)c(C)c1 (stereo not given) , please.
Result: 0.12

Ask: Tell me the measured log10 BCF of O=[N+]([O-])c1ccc(Cl)c(Cl)c1Cl , please.
Result: 2.2

Ask: Tell me the measured log10 BCF of Brc1ccccc1 , please.
Result: 1.36

Ask: Tell me the measured log10 BCF of CC(Cl)(Cl)Cl , please.
Result: 0.7

Ask: Tell me the measured log10 BCF of COP(=S)(Oc1cc(Cl)c(Br)cc1Cl)c1ccccc1 (stereo not given) , please.
Result: 3.78

Ask: Tell me the measured log10 BCF of Clc1ccccc1Cl , please.
Result: 2.43

Ask: Tell me the measured log10 BCF of Cc1cc(Cc2cc(C)cc(C(C)(C)C)c2O)c(O)c(C(C)(C)C)c1 , please.
Result: 2.74

Ask: Tell me the measured log10 BCF of CC1(C)[C@H](C(=O)O[C@H](C#N)c2cccc(Oc3ccccc3)c2)[C@@H]1C=C(Br)Br , please.
Result: 2.51

Ask: Tell me the measured log10 BCF of CC(C)(C)c1ccc(O)c(C(C)(C)C)c1 , please.
Result: 2.4

Ask: Tell me the measured log10 BCF of Brc1c(Br)c(Br)c(Br)c(Br)c1Br , please.
Result: 3

Ask: Tell me the measured log10 BCF of CCc1ccc(CC)cc1 , please.
Result: 2.68

Ask: Tell me the measured log10 BCF of c1ccc(Oc2ccccc2)cc1 , please.
Result: 2.5
